B1: LOC100129726 (parent)
chain: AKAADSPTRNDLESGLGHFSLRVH

Variants of: B1
Test: protein stability index of a GFP-peptide fusion (GPS, HEK-293T) (PSI 1-6); higher = more stable;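 note: lentivirally expressed fusions sorted by FACS into six bins by GFP to DsRed ratio, PSI derived from sequencing read proportions per bin multiplied by bin number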
Conditions: c terminus: a fixed tail appended
Property Label: protein stability index
One number for each entry.

# Mutation Label, Property Label, Numeric Readout
rows = [
    ("L16G", "protein stability index", 3.58),
    ("A1D", "protein stability index", 3.88),
    ("N10K", "protein stability index", 2.98),
    ("G17R", "protein stability index", 2.89),
    ("K2C", "protein stability index", 2.05),
    ("V23I", "protein stability index", 2.42),
    ("G15Q", "protein stability index", 3.81),
    ("G15N", "protein stability index", 2.82),
    ("K2V", "protein stability index", 3.18),
    ("S14R", "protein stability index", 2.78),
]

Need protein stability index for each of these variants.
1. A1L
2. K2P
3. H18Y

[2.9, 3.23, 2.66]
